assay: Single ascending dose pharmacokinetics of intravenous CN-105 in healthy adults; conditions: human, plasma, iv, 0.3 mg/kg
Where a SMILES comes first, the peptide text is derived from it.
READOUT_KIND: Cmax (µg/mL)
State just the number; it will be interpreted in µg/mL.

What does the data say about its Cmax? Entry: CC(=O)N[C@H](C(=O)N[C@@H](CO)C(=O)N[C@@H](CCCNC(=N)N)C(=O)N[C@@H](CCCNC(=N)N)C(=O)N[C@@H](CCCNC(=N)N)C(N)=O)C(C)C [CN-105] (Ac-VSRRR-NH2; N-terminus and C-terminus assumed)
0.966

====

test: Repeated dose pharmacokinetics of intravenous CN-105; format: in vivo, human; settings: human, plasma, iv, 1 mg/kg
Where a SMILES comes first, the peptide text is derived from it.
READOUT_KIND: half-life
Quick note: unit goes after the number.

Which value of half-life has been reported for CC(=O)N[C@H](C(=O)N[C@@H](CO)C(=O)N[C@@H](CCCNC(=N)N)C(=O)N[C@@H](CCCNC(=N)N)C(=O)N[C@@H](CCCNC(=N)N)C(N)=O)C(C)C [CN-105] (Ac-VSRRR-NH2; N-terminus and C-terminus assumed) in the records?
3.6 h
